From: patent US20250289893A1

molecular target: T1, human CD1a protein (pool B) (human, UniProt P06126 18-295, limits assumed); test: ELISA, 10 µg/ml antibody
T1 construct: Recombinant protein of the ELISA (coated) and the Biacore T200 titration; whole entry named; also called human CD1a pool B; full length CD1a
T1 sequence (P06126 18-295 limits assumed): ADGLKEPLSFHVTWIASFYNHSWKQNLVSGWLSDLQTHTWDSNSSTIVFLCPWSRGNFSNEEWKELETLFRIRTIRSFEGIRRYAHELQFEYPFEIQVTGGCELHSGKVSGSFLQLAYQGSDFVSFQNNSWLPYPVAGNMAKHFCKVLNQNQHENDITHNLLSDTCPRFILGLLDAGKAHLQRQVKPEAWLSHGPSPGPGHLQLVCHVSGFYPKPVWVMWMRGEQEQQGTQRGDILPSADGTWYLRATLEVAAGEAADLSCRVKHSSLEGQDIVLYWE
Optical Density (OD) overview

Binder	Optical Density (OD)
111 (VR12113) (antibody, V domains shown, also called OX111) VH: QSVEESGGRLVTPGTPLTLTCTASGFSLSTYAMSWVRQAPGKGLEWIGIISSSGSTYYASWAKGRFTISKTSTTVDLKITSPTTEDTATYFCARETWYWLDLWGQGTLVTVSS VL: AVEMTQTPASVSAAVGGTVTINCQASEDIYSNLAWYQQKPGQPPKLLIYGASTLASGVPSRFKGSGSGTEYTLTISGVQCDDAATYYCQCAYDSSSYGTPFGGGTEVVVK	1.12
116 (VR12117) (antibody, V domains shown, also called OX116) VH: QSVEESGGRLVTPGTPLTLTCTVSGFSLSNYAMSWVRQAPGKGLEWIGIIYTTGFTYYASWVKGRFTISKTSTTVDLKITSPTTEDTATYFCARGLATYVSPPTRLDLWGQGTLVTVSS VL: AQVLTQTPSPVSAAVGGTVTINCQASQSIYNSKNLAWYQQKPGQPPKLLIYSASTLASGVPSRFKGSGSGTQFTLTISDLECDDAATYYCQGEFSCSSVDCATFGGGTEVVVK	1.18
77A (VR11851) (antibody, V domains shown, also called OX77a; antibody 77a) VH: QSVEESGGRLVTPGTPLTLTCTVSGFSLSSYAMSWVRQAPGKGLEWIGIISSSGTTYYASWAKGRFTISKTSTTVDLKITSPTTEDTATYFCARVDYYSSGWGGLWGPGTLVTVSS VL: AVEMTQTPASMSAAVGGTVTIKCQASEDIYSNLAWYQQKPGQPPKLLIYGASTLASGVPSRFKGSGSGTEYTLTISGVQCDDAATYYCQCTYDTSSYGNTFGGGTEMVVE	1.34
110 (VR12112) (antibody, V domains shown, also called OX110; antibody 110) VH: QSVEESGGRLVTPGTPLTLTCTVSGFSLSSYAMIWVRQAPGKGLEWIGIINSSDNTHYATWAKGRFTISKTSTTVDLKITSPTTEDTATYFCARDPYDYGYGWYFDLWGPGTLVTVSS VL: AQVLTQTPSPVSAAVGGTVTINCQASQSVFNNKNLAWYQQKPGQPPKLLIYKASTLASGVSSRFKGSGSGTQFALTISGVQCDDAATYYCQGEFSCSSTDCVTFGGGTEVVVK	1.28
